conditions: in benzene, 308.15 K
measurement kind: solubility (mole fraction)

Ask | Any idea what its solubility (mole fraction) is? The molecule is CC(=O)c1ccc(O)cc1O
Reply | 0.00082

----------
settings: in n-butanol, 318.15 K
measurement kind: solubility (mole fraction)
# respond with the number and nothing more

Ask | // returns reported solubility (mole fraction) for input CC(=O)c1ccc(O)cc1O
Reply | 0.191

----------
conditions: in ethyl acetate, 313.15 K
measurement kind: solubility (mole fraction)

Ask | Quick one: solubility (mole fraction) of CC(=O)c1ccc(O)cc1O ?
Reply | 0.166

----------
settings: in isopropanol, 308.15 K
measurement kind: solubility (mole fraction)
Form rule: numeric answer, no unit written next to it.

Ask | Requested field: solubility (mole fraction). Item: CC(=O)c1ccc(O)cc1O
Reply | 0.178

----------
settings: in n-propanol, 333.15 K
measurement kind: solubility (mole fraction)
Output spec: single numeric token, no unit.

Ask | Param item = CC(=O)c1ccc(O)cc1O ; retrieve measured solubility (mole fraction).
Reply | 0.233

----------
settings: in isopropanol, 323.15 K
measurement kind: solubility (mole fraction)
Answer with the value's number alone.

Ask | Request the reported solubility (mole fraction) associated with CC(=O)c1ccc(O)cc1O
Reply | 0.231

----------
conditions: in ethyl acetate, 293.15 K
measurement kind: solubility (mole fraction)
Format: numeric value only, no unit, no commentary.

Ask | Fill in the blank: the reported solubility (mole fraction) of CC(=O)c1ccc(O)cc1O is ____.
Reply | 0.118

----------
conditions: in methanol, 313.15 K
measurement kind: solubility (mole fraction)
# respond with the number and nothing more

Ask | I am curious: what solubility (mole fraction) value has been reported for CC(=O)c1ccc(O)cc1O ?
Reply | 0.163

----------
conditions: in benzene, 318.15 K
measurement kind: solubility (mole fraction)
// return a plain number; no unit text

Ask | Requested read-out: solubility (mole fraction). Entry: CC(=O)c1ccc(O)cc1O
Reply | 0.00125

----------
settings: in ethyl acetate, 308.15 K
measurement kind: solubility (mole fraction)
Could you respond with only the numeric value?

Ask | Requested field: solubility (mole fraction). Item: CC(=O)c1ccc(O)cc1O
Reply | 0.152

----------
details: in n-butanol, 323.15 K
measurement kind: solubility (mole fraction)
Quick one: just the number, no unit, thanks!

Ask | Return reported solubility (mole fraction); argument: CC(=O)c1ccc(O)cc1O
Reply | 0.214

----------
details: in n-propyl acetate, 308.15 K
measurement kind: solubility (mole fraction)
// no unit, no text: just the number

Ask | Any idea what its solubility (mole fraction) is? The compound is CC(=O)c1ccc(O)cc1O
Reply | 0.143

----------
details: in isobutanol, 323.15 K
measurement kind: solubility (mole fraction)

Ask | Please look up its solubility (mole fraction): CC(=O)c1ccc(O)cc1O
Reply | 0.18

----------
settings: in n-propanol, 303.15 K
measurement kind: solubility (mole fraction)

Ask | Item CC(=O)c1ccc(O)cc1O has what recorded solubility (mole fraction)?
Reply | 0.135

----------
details: in n-propanol, 328.15 K
measurement kind: solubility (mole fraction)

Ask | Recorded solubility (mole fraction) for CC(=O)c1ccc(O)cc1O , please?
Reply | 0.216

----------
conditions: in benzene, 298.15 K
measurement kind: solubility (mole fraction)

Ask | Returns the measured solubility (mole fraction) for the input compound. Input: CC(=O)c1ccc(O)cc1O
Reply | 0.00055
